# OD450 at 0.0045725 ug/ml values compiled below
experimental.target: T1, human LAG3 expressed on cells (human, UniProt P18627 23-525)
T1 construct: whole, on cells
T1 sequence (looked up): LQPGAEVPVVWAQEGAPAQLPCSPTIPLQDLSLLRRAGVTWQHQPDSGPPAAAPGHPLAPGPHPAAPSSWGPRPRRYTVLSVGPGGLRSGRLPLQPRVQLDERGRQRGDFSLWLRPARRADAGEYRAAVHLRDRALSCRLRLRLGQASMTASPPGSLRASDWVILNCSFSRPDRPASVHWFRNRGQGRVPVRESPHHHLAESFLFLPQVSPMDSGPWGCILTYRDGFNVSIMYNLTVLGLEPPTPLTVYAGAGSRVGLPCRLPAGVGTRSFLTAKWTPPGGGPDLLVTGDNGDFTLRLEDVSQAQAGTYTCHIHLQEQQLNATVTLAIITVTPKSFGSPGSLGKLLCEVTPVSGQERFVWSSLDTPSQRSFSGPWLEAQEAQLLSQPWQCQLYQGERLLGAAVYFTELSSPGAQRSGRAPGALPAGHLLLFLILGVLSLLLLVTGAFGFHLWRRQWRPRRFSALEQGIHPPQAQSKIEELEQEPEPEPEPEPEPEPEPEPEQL
assay.summary: cell ELISA, 293T-hLAG3 cells
Hey, just send me the number, nothing else.

1) sdAb No. 17 (VHH, Fc of the tested form not described; also called sdAb 17; not shown: Fc part implied by anti-human Fc capture and anti-human IgG1 Fc detection) VHH: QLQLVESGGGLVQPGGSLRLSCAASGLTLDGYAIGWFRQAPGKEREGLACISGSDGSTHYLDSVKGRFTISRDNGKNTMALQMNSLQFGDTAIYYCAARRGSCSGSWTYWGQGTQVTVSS | 0.104

Please fill in: OD450 at 0.0045725 ug/ml reported for sdAb No. 17-H4 (VHH, Modified sdAb No. 17 (CDR2 DG to EG); not shown: Fc part implied by anti-human IgG1 Fc detection) VHH: QLQLVESGGGLVQPGGSLRLSCAASGLTLDGYAIGWFRQAPGKEREGLACISGSEGSTHYLDSVKGRFTISRDNGKNTMALQMNSLQFGDTAIYYCAARRGSCSGSWTYWGQGTQVTVSS = 0.092

Please fill in: OD450 at 0.0045725 ug/ml reported for sdAb No. 27-H1 (VHH, Modified sdAb No. 27 (CDR2 DG to DA); not shown: Fc part implied by anti-human IgG1 Fc detection) VHH: QVQLVESGGGLVQPGGSLRLSCAASGFTLDYYAIGWFRQAPGKEREGVSCIRSSDASTYYADSVKGRFTISSDNTKNTVYLQMNSLKPEDTAVYYCATDRYSDCRGPYENWGQGTQVTVSS = 0.076

Please fill in: OD450 at 0.0045725 ug/ml reported for sdAb No. 17-H1 (VHH, Modified sdAb No. 17 (CDR1 DG to DA); not shown: Fc part implied by anti-human IgG1 Fc detection) VHH: QLQLVESGGGLVQPGGSLRLSCAASGLTLDAYAIGWFRQAPGKEREGLACISGSDGSTHYLDSVKGRFTISRDNGKNTMALQMNSLQFGDTAIYYCAARRGSCSGSWTYWGQGTQVTVSS = 0.101
